Attribution: PubChem BioAssay (EPA / NIEHS)

- method-summary: BSK_4H_Eotaxin3: BioMAP Diversity Plus: 4H Assay for Eotaxin 3 Biomarker Activity (AID 2283000)
- conditions-used: primary human endothelial cells (HUVEC); actives raise or lower the signal
Active and inactive are the calls of the source. How the source made its calls: active means hit-call score of the fitted dose curve at least 0.9, where 1 is the maximum; inactive means score below 0.9.
measured-metric: AC50

Before answering, review these 4 worked examples.
molecule	AC50
CCOC(=O)CC(SP(=O)(OC)OC)C(=O)OCC (stereo not drawn)	inactive
S=C1NCCN1	inactive
CNC(=O)Oc1cccc2c1OC(C)(C)O2	20 µM (active)
CC[C@H](C)[C@H]1O[C@]2(C=C[C@@H]1C)C[C@@H]1C[C@@H](C/C=C(\C)[C@@H](O[C@H]3C[C@H](OC)[C@@H](O[C@H]4C[C@H](OC)[C@@H](NC)[C@H](C)O4)[C@H](C)O3)[C@@H](C)/C=C/C=C3\CO[C@@H]4[C@H](O)C(C)=C[C@@H](C(=O)O1)[C@]34O)O2	5.75 µM (active)

[in] Please report the measured AC50 for CC1(C(=O)Nc2ccc(O)c(Cl)c2Cl)CCCCC1
[out] inactive

[in] Please report the measured AC50 for CC(COc1ccc(Oc2ccccc2)cc1)Oc1ccccn1 (stereo not drawn)
[out] inactive

[in] Please report the measured AC50 for CCOP(=S)(OCC)Oc1ccc2c(C)c(Cl)c(=O)oc2c1
[out] inactive

[in] Please report the measured AC50 for CC(C)[C@H](C(=O)O[C@H](C#N)c1cccc(Oc2ccccc2)c1)c1ccc(Cl)cc1
[out] inactive
